System: U251 CNS
TEST_DESCRIPTION: NCI-60 one-dose screen, 48 h
ASSAY_CONTEXT: 10 µM unless noted
Compounds without any hit were thinned out: in the full panel of roughly 83,000, 20% have a hit. Calls of active or inactive are those of the source. How the source made its calls: active means growth percent below 10; inactive means the rest.
Labels: active, inactive

- Cn1ccc(Cc2cnc(N)s2)n1: inactive
- Cn1nnnc1-c1ccc(N)cc1: inactive
- Cc1cnc(Nc2ccc(N3CCN(C)CC3)cc2)nc1Nc1ccc(Cl)c(NS(=O)(=O)C(C)(C)C)c1: inactive
- COC(=O)c1ccc(CSc2nnc(-c3ccncc3)o2)cc1: inactive
- C=C1c2c(C)nn(-c3ccc(NC(C)=O)cc3)c2N(C)C23CC1C1(C)c4c(C)nn(-c5ccc(NC(C)=O)cc5)c4N(C)C(C)(CC12)C3 (stereo not drawn): inactive
- CC(C)N(CCOC(=O)Nc1ccccc1Cl)C(C)C: inactive
- Cc1cc(-c2ccc(N(C)C)cc2)c2sc(=O)[nH]c2n1: inactive
- COc1ccc(-c2c(N)n[nH]c2-c2ccccc2O)cc1OC: inactive
- CCn1c(Sc2nnc(Nc3ccccc3)s2)nc2c1c(=O)n(C)c(=O)n2C: inactive
- C=C(Cl)COC(=O)C(C)(C)O: inactive
- COc1ccc(C2CC(c3cnccn3)=NN2)cc1OC (stereo not drawn): inactive
- CCO/C=N/C1=C(C#N)C(c2ccc(OC)cc2)c2c(c3ccccc3n(C)c2=O)O1 (stereo not drawn): inactive
- Cc1cccc(-c2cc(O)c(C(=O)N3CCOCC3)s2)c1: inactive
- CCCCCCCCn1cc(C2=C(c3coc4ccc(OC)cc34)C(=O)NC2=O)c2ccccc21: inactive
- O=C1/C(=C/c2ccccc2[N+](=O)[O-])COc2ccc(O)c(O)c21: active
- COc1cccc(CCC2CCCN(c3cc(C)nc(N)n3)C2)c1 (stereo not drawn): inactive
- CCCCCOC(=O)c1ccc(NC(=O)CNCC(C)C)cc1: inactive
- Cl.Fc1c[c-]c(-c2ccccn2)c(F)c1.[Pt].c1ccc([PH+](c2ccccc2)c2ccccc2[PH+](c2ccccc2)c2ccccc2)cc1: active
- CC(/C=N/NC(=O)c1cc(-c2ccco2)[nH]n1)=C\c1ccccc1: inactive
- COc1ccccc1C(=O)NC(=S)Nc1ccc(-c2nc3ccccc3[nH]2)cc1: inactive
- CCn1c(Sc2nnc(NC(=O)CCN3CCCC3)s2)nc2c1c(=O)n(C)c(=O)n2C: inactive
- Cc1c2c(cn1Cc1ccccc1)CCc1cn[nH]c1-2: inactive
- COc1ccc(C(=O)/C=C/C23c4ccccc4C(c4ccccc42)C2C(=O)NC(=O)C23)cc1 (stereo not drawn): inactive
- N=C(N)c1ccc(-c2ccc(-c3ccc(Cl)cc3Cl)o2)cc1: active
- N#C/C(=C\c1ccc(Br)cc1)n1nnc2ccccc21: active
- N=C(N)c1ccc(-c2ccc(-c3ccc(Cl)cn3)s2)cc1: active
- COc1ccc(OC)c(/C=C2\COc3ccc(O)c(O)c3C2=O)c1: inactive
- CCN(CC)CCOc1ccc(/C(=C(\C)c2ccc(OC)c(F)c2)c2ccc(Cl)cc2)cc1: inactive
- CCCCCCCC/C=C/CCCCCCCC1=NCC[N+]1(CCO)CCO: inactive
- CCOC(=O)N1CCc2c(sc3c2C(=O)N[C@H](c2ccc(OC)cc2)N3)C1: inactive
- CN(C)c1ccc(C#Cc2c(F)cccc2Cl)cc1: inactive
- COc1ccc2c(c1)/C(=C\c1sc(=S)[nH]c1O)C(C(=O)O)=N2: inactive
- CCOC(=O)C1=C(C)NC(SCc2nnc(-c3ccc(Cl)cc3)o2)=NC1c1ccc(Cl)cc1Cl (stereo not drawn): inactive
- COc1ccc(-c2cc(-c3ccc(Nc4nc(Nc5ccccc5)nc(Nc5ccc(Cl)cc5)n4)cc3)nc(N)c2C#N)cc1: active
- [2H]c1nc(Nc2ncc(F)c(-c3cc(F)c4nc(C)n(C(C)C)c4c3)n2)c([2H])c([2H])c1CN1CCN(C([2H])([2H])C([2H])([2H])[2H])CC1: inactive
- CCC(C)NCc1ccccc1 (stereo not drawn): inactive
- Clc1ccc(-c2nnc(-c3ccco3)o2)cc1: inactive
- CCOC(=O)c1ccc(-c2ccc3cc(OC)ccc3c2)nc1C: inactive
- Fc1ccc(Nc2ccc3cc(OCCCN4CCOCC4)ccc3n2)cc1F: inactive
- O=C(CC1Sc2ccccc2NC1=O)NNc1ccc(F)cc1 (stereo not drawn): inactive
- NC(N)=N/N=C/c1ccc(Br)cc1: inactive
- COc1ccc(/C(C)=N/NS(=O)(=O)c2ccc(C)cc2)cc1OC: inactive
- COC(=O)c1ccc2oc(NC(=O)c3ccc(N4CCOCC4)c([N+](=O)[O-])c3)nc2c1: inactive
